- STUDY_SYSTEM: mTOR (Homo sapiens, UniProt P42345)
- Sequence (P42345 1360-2549 limits assumed): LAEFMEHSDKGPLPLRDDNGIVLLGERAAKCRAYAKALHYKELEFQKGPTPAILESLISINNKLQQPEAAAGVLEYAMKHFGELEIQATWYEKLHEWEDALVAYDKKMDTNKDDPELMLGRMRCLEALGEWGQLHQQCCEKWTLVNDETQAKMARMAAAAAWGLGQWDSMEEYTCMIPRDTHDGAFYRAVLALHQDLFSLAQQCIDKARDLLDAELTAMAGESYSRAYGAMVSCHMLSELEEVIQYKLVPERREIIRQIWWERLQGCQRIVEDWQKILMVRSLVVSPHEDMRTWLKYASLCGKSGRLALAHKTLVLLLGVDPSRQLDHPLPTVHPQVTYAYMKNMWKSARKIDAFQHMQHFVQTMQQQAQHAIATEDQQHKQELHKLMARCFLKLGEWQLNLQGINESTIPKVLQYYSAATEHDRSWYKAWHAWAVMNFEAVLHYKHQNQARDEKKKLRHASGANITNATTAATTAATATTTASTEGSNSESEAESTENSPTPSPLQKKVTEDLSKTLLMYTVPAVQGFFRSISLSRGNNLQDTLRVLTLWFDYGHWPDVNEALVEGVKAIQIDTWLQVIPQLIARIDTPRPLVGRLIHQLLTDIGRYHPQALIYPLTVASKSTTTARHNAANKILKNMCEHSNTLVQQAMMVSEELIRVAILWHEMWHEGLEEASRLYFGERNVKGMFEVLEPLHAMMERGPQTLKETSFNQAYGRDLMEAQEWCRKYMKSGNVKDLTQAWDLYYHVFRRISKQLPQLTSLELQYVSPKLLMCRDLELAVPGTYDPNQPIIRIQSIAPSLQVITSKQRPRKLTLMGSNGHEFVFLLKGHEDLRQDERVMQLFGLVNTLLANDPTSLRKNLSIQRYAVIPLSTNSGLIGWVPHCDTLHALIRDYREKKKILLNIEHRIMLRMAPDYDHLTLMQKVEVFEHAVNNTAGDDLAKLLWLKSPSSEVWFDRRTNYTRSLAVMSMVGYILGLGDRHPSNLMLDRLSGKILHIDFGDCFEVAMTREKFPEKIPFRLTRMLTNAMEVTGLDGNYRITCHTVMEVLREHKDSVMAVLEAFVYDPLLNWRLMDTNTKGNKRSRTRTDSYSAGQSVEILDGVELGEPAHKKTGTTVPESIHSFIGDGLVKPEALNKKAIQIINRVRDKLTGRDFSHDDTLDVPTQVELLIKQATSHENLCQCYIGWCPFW
Give IC50 for every item shown.

CC(C)(O)c1ccc(-c2cnc3c(n2)N(Cc2cccc(C#N)c2)C(=O)CN3)cn1 | 0.005 to 250 nM
Cc1cc(-c2nc[nH]n2)c(F)cc1-c1cnc2c(n1)N(C1CCOCC1)C(=O)CN2 | 0.005 to 250 nM
CC(C)(O)c1ccc(-c2cnc3c(n2)N(Cc2cccc(C(F)(F)F)c2)CC(=O)N3)cn1 | 0.005 to 250 nM
CCN1C(=O)CNc2ncc(-c3cnc4[nH]ccc4c3)nc21 | 250 to 500 nM
Cc1cc(-c2nnc[nH]2)ccc1-c1cnc2c(n1)NC(C)(C)C(=O)N2 | 250 to 500 nM
O=C1CNc2ncc(-c3ccc(O)nc3)nc2N1CCC1CCOCC1 | 1000 to 10000 nM

Okay, here is my list. What is IC50 for each of these?
1. CO[C@H]1CC[C@@H](CN2CC(=O)Nc3ncc(-c4ccc(-c5nnc[nH]5)nc4C)nc32)C1
2. CCN1C(=O)CNc2ncc(-c3ccc(-c4nc[nH]n4)nc3)nc21
3. C[C@@H](O)c1ccc(-c2cnc3c(n2)N(CCC2CCOCC2)CC(=O)N3)cn1
4. Cc1c(-c2cnc3c(n2)N(CCC2CCOCC2)C(=O)CN3)ccc(-c2nc[nH]n2)c1F

Result:
0.005 to 250 nM
0.005 to 250 nM
0.005 to 250 nM
0.005 to 250 nM

Entry under test: O=C1CNc2ncc(-c3c[nH]c4ncccc34)nc2N1CCC1CCOCC1 . Its IC50 was 0.005 to 250 nM
